test: activity coefficient (dimensionless); of the first substance listed, at infinite dilution; xn = mol fraction of the nth substance listed; details: 363.15 K; 101.33 kPa; Liquid; Chromatography; x1 = 0
Decision: activity coefficient beneath 90 gives criterion met; activity coefficient meeting or exceeding 90 gives criterion not met.

Consider the following illustrative entries.
molecule: C1=CCCCC1 [cyclohexene] + CCC[n+]1ccn(C)c1.[Br-]
assignedLabel: criterion met
--
molecule: CCO [ethanol] + CCC[n+]1ccn(C)c1.[Br-]
assignedLabel: criterion met
--
molecule: CCCCCCCC [octane] + CCC[n+]1ccn(C)c1.[Br-]
assignedLabel: criterion not met
--
molecule: CO [methanol] + CCC[n+]1ccn(C)c1.[Br-]
assignedLabel: criterion met
--
molecule: ClCCl [dichloromethane] + CCC[n+]1ccn(C)c1.[Br-]
assignedLabel: criterion met

Note: attention shifts to another entry.
Please state whether activity coefficient is below 90 for CCCCCCCCC [nonane] + CCC[n+]1ccn(C)c1.[Br-] criterion not met

----------
experiment: activity coefficient (dimensionless); of the first substance listed, at infinite dilution; xn = mol fraction of the nth substance listed; conditions: 353.15 K; 101.33 kPa; Liquid; Chromatography; x1 = 0
# reported activity coefficient; entries follow
Lab note: record just the number, no unit beside it.

Query CCOC(C)=O [ethyl acetate] + CCC[n+]1ccn(C)c1.[Br-] yields activity coefficient of 4.27

Query Cc1cccc(C)c1 [1,3-dimethylbenzene] + CCC[n+]1ccn(C)c1.[Br-] yields activity coefficient of 6.33

Query C1=CCCCC1 [cyclohexene] + CCC[n+]1ccn(C)c1.[Br-] yields activity coefficient of 18.8

Query CC(C)CCO [3-methylbutan-1-ol] + CCC[n+]1ccn(C)c1.[Br-] yields activity coefficient of 0.548

Query Cc1ccc(C)cc1 [1,4-dimethylbenzene] + CCC[n+]1ccn(C)c1.[Br-] yields activity coefficient of 6.11

Query Cc1ccccc1 [toluene] + CCC[n+]1ccn(C)c1.[Br-] yields activity coefficient of 3.5

Query CCc1ccccc1 [ethylbenzene] + CCC[n+]1ccn(C)c1.[Br-] yields activity coefficient of 6.01

Query CCO [ethanol] + CCC[n+]1ccn(C)c1.[Br-] yields activity coefficient of 0.184

Query CO [methanol] + CCC[n+]1ccn(C)c1.[Br-] yields activity coefficient of 0.103

Query C1COCCO1 [1,4-dioxane] + CCC[n+]1ccn(C)c1.[Br-] yields activity coefficient of 1.17

----------
# reported activity coefficient; entries follow
test: activity coefficient (dimensionless); of the first substance listed, at infinite dilution; xn = mol fraction of the nth substance listed; details: 363.15 K; 101.33 kPa; Liquid; Chromatography; x1 = 0
Lab note: record just the number, no unit beside it.

Example results:
compound: CC(C)CCO [3-methylbutan-1-ol] + CCC[n+]1ccn(C)c1.[Br-]
reportedMeasurement: 0.531

compound: CC1CCCCC1 [methylcyclohexane] + CCC[n+]1ccn(C)c1.[Br-]
reportedMeasurement: 73.2

compound: CC(C)O [propan-2-ol] + CCC[n+]1ccn(C)c1.[Br-]
reportedMeasurement: 0.326

compound: C1CCCCC1 [cyclohexane] + CCC[n+]1ccn(C)c1.[Br-]
reportedMeasurement: 60.4

Query Cc1ccccc1 [toluene] + CCC[n+]1ccn(C)c1.[Br-] yields activity coefficient of 3.72
